- method: Saturation solubility of naltrexone in different media
- Format: physicochemical
- setup conditions: pH 5.5, aqueous buffer, thermodynamic from solid; PBS pH5.5 (1:5); read-out: Solubility of API

# molecule, solubility / µg/mL
data = [
    ("O=C1CC[C@@]2(O)[C@H]3Cc4ccc(O)c5c4[C@@]2(CCN3CC2CC2)[C@H]1O5 [naltrexone]", 3120),
]

###

- method: Saturation solubility of naltrexone in different media
- Assay type: physicochemical
- setup conditions: pH 5, aqueous buffer, thermodynamic from solid; PBS pH5.0 (1:5); read-out: Solubility of API

# compound, solubility [µg/mL]
data = [
    ("O=C1CC[C@@]2(O)[C@H]3Cc4ccc(O)c5c4[C@@]2(CCN3CC2CC2)[C@H]1O5 [naltrexone]", 5210),
]

###

- method: Saturation solubility of naltrexone in different media
- Format: physicochemical
- setup conditions: pH 5, aqueous buffer, thermodynamic from solid; Hanks' Balanced Salt solution pH5.0; read-out: Solubility of API

# compound, unit string, solubility
measured = [
    ("O=C1CC[C@@]2(O)[C@H]3Cc4ccc(O)c5c4[C@@]2(CCN3CC2CC2)[C@H]1O5 [naltrexone]", "µg/mL", 770),
]

###

- method: Saturation solubility of naltrexone in different media
- Assay type: physicochemical
- setup conditions: pH 8, aqueous buffer, thermodynamic from solid; Hanks' Balanced Salt solution pH8.0; read-out: Solubility of API

# molecule, solubility [µg/mL]
measured = [
    ("O=C1CC[C@@]2(O)[C@H]3Cc4ccc(O)c5c4[C@@]2(CCN3CC2CC2)[C@H]1O5 [naltrexone]", 650),
]
